target: Human GLP-1 receptor stably expressing cells (hGLP-1R/CHO-K1 cells) (Homo sapiens, UniProt P43220); experiment: Measurement of GLP-1 receptor agonist activity (cAMP assay); conditions: increase in cAMP concentration in hGLP-1R/CHO-K1 cells, 37° C. 1 hour
Sequence (P43220 24-463): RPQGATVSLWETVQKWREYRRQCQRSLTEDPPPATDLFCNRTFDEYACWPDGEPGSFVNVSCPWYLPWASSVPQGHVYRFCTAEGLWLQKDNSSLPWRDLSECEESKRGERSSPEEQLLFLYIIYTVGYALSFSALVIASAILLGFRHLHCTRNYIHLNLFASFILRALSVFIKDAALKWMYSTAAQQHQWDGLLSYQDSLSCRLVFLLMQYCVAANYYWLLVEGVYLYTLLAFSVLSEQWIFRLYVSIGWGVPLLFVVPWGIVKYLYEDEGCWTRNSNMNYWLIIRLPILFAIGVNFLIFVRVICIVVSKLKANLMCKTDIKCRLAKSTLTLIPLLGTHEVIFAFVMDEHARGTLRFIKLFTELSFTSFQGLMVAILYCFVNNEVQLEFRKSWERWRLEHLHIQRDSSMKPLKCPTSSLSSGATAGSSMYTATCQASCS
pEC50: −log10 of the molar value.
Assign fulfilled to entries whose pEC50 meets or exceeds 10; assign not fulfilled to the rest.

Please review the following examples before continuing.
> print(dat)
                                   compound    group.label
1  Cc1noc(COc2nc3c(cc2C(F)(F)F)CCN(Cc2nc4ccc(C(=O)O)cc4n2C[C@@H]2CCO2)[C@H]3C)n1  not fulfilled
2  COc1cc(C(=O)O)cc2c1nc(CN1CCc3cc(Cl)c(OCc4cc(F)c(Cl)cc4F)nc3[C@@H]1C)n2C[C@@H]1CCO1      fulfilled
3  C[C@H]1c2nc(OCc3c(F)cc(Cl)cc3F)c(Cl)cc2CCN1Cc1nc2ccc(C(=O)O)nc2n1C[C@@H]1CCO1  not fulfilled
4  C[C@H]1c2nc(OCc3cc(Cl)cs3)c(C(F)(F)F)cc2CCN1Cc1nc2ccc(C(=O)O)cc2n1C[C@@H]1CCO1  not fulfilled
5  O=C(O)c1ccc2nc(CC3CCc4cc(C(F)(F)F)c(OCc5ccc(Cl)cc5F)cc4C3)n(C[C@@H]3CCO3)c2c1 (stereo partly shown)  not fulfilled
6  C[C@H]1c2nc(OCc3ccc(Cl)cc3F)c(Cl)cc2CCN1Cc1nc2ccc(C(=O)O)c(F)c2n1C[C@@H]1CCO1      fulfilled

stdin: Kindly determine if pEC50 recorded for COc1cc(C(=O)O)cc2c1nc(CN1CCc3cc(C(F)F)c(OCc4ccc(C#N)cc4F)nc3[C@@H]1C)n2C[C@@H]1CCO1 is above or exactly 10.
stdout: fulfilled

stdin: Given C[C@H]1c2nc(OCc3ccc(C#N)cc3F)c(C(F)F)cc2CCN1Cc1nc2ccc(C(=O)O)nc2n1C[C@@H]1CCO1 , state whether its pEC50 is at least 10.
stdout: not fulfilled

stdin: Has Cc1nonc1COc1nc2c(cc1C(F)(F)F)CCN(Cc1nc3ccc(C(=O)O)cc3n1C[C@@H]1CCO1)[C@H]2C a recorded pEC50 greater than or equal to 10?
stdout: not fulfilled

---

target: Human GLP-1 receptor stably expressing cells (hGLP-1R/CHO-K1 cells) (Homo sapiens, UniProt P43220); construct: expressed in transfected cells; assay: Measurement of GLP-1 receptor agonist activity (cAMP assay); type: cell-based; settings: CHO-K1, maximum effect; cAMP with 2 nM human GLP-1 (7-36) = 100%, DMSO only = 0%; read-out: Emax
measurement kind: Emax (%)
Number only, in %; omit the unit.

> print(dat)
                                chem.smiles  measurement.kind  measured.result
1  COc1cc(C(=O)O)cc2c1nc(CN1CCc3cc(Cl)c(OCc4ccc(F)cc4F)nc3[C@@H]1C)n2C[C@@H]1CCO1              Emax              109

stdin: What value of Emax has been recorded for this entry: C[C@H]1c2nc(NCc3c(F)cc(Cl)cc3F)c(C(F)(F)F)cc2CCN1Cc1nc2c(Cl)cc(C(=O)O)cc2n1C[C@@H]1CCO1
stdout: 106

stdin: So what does the record say about Emax for C[C@H]1c2nc(OCc3ccc(Cl)c4ccoc34)c(C(F)(F)F)cc2CCN1Cc1nc2ccc(C(=O)O)cc2n1C[C@@H]1CCO1 ?
stdout: 128

stdin: # input compound: C[C@H]1c2nc(OCc3c(F)cc(F)cc3F)c(C#N)cc2CCN1Cc1nc2c(Cl)cc(C(=O)O)cc2n1C[C@@H]1CCO1 ; wanted: its Emax
stdout: 135

stdin: Requested field: Emax. Item: C[C@H]1c2nc(OCc3ccc(F)cc3F)c(C(F)F)cc2CCN1Cc1nc2ccc(C(=O)O)c(F)c2n1C[C@@H]1CCO1
stdout: 119

stdin: Recorded Emax for C[C@H]1c2nc(OCc3cc(F)c(Cl)cc3F)c(Cl)cc2CCN1Cc1nc2ccc(C(=O)O)cc2n1C[C@@H]1CCO1 , please?
stdout: 112

---

Target: Human GLP-1 receptor stably expressing cells (hGLP-1R/CHO-K1 cells) (Homo sapiens, UniProt P43220)
Construct: expressed in transfected cells
Experiment: Measurement of GLP-1 receptor agonist activity (cAMP assay)
Assay type: cell-based
Conditions: CHO-K1, maximum effect; cAMP with 2 nM human GLP-1 (7-36) = 100%, DMSO only = 0%; read-out: Emax
Method: Test Example 1: Measurement of GLP-1 Receptor Agonist Activity Human GLP-1 receptor stably expressing cells (hGLP-1R/CHO-K1 cells) are cultured in an a-MEM medium (Sigma) containing 10% FBS (Hyclone), 2% GlutaMAX (Gibco), 1% G418 (Nacalai Tesque), and 1% Penicillin-Streptomycin Mixed Solution (Sigma) at 37° C. under 5% CO2 conditions, and recovered by treating a 10 fold diluted 5.0 g/1-trypsin/5.3 mmol/1-EDTA solution (Nacalai Tesque) and cryopreserved. […]
measurement kind: Emax (%)
Just the number please, in %, no unit attached.

Example entries begin here.
> print(dat)
                                chem.smiles  measurement.kind  measured.result
1  COc1cc(Cl)ccc1COc1cc2c(cc1C(F)F)CCN(Cc1nc3ccc(C(=O)O)cc3n1C[C@@H]1CCO1)[C@H]2C              Emax              130
2  C[C@H]1c2nc(OCc3nc4ccccc4s3)c(C(F)(F)F)cc2CCN1Cc1nc2ccc(C(=O)O)cc2n1C[C@@H]1CCO1              Emax               97

// moving on: another record for Emax
stdin: Entry C[C@H]1c2nc(OCc3ncc(Cl)cc3F)c(C(F)(F)F)cc2CCN1Cc1nc2ccc(C(=O)O)cc2n1C[C@@H]1CCO1 : reported Emax = ?
stdout: 110

---

molecular target: Human GLP-1 receptor stably expressing cells (hGLP-1R/CHO-K1 cells) (Homo sapiens); test: Measurement of GLP-1 receptor agonist activity (cAMP assay); conditions: increase in cAMP concentration in hGLP-1R/CHO-K1 cells, 37° C. 1 hour
measurement kind: pEC50
In textbook form, pEC50 equals minus log to base ten of the concentration in mol/L.

Here are 5 molecules together with their reported answers.
> print(dat)
                                chem.smiles  measured.result
1  C[C@H]1c2nc(NCc3cc(F)c(Cl)cc3F)c(C(F)(F)F)cc2CCN1Cc1nc2c(F)cc(C(=O)O)cc2n1C[C@@H]1CCO1            10.08
2  C[C@H]1c2nc(OCc3ccc(F)cc3F)c(Cl)cc2CCN1Cc1nc2ccc(C(=O)O)c(F)c2n1C[C@@H]1CCO1             9.98
3  COc1cc(C(=O)O)cc2c1nc(CN1CCc3cc(Cl)c(OCc4c(F)cc(F)cc4F)nc3[C@@H]1C)n2C[C@@H]1CCO1            10.31
4  C[C@H]1c2nc(OCc3cc(F)c(Cl)cc3F)c(Cl)cc2CCN1Cc1nc2ccc(C(=O)O)cc2n1C[C@@H]1CCO1            10.08
5  C[C@H]1c2cc(OCc3c(F)cc(Cl)cc3F)c(Cl)cc2CCN1Cc1nc2ccc(C(=O)O)c(F)c2n1C[C@@H]1CCO1            10.19

Next:
stdin: pEC50 of C[C@H]1c2nc(OCc3ccc(C#N)cc3F)c(Cl)cc2CCN1Cc1nc2ccc(C(=O)O)c(F)c2n1C[C@@H]1CCO1 on Human GLP-1 receptor stably expressing cells (hGLP-1R/CHO-K1 cells) (Homo sapiens)?
stdout: 10.20

---

target: Human GLP-1 receptor stably expressing cells (hGLP-1R/CHO-K1 cells) (Homo sapiens); construct: expressed in transfected cells; assay: Measurement of GLP-1 receptor agonist activity (cAMP assay); type: cell-based; conditions: CHO-K1, maximum effect; cAMP with 2 nM human GLP-1 (7-36) = 100%, DMSO only = 0%; read-out: Emax
Listing: Emax of selected compounds
Report the figure in % without appending any unit label.

Known Emax results, listed for orientation:
> print(dat)
                                   compound                         target.under.test  value.units  measured.result
1  C[C@H]1c2nc(OCc3ccc(C#N)cc3F)c(Cl)cc2CCN1Cc1nc2ccc(C(=O)O)c(F)c2n1C[C@@H]1CCO1 [Compound I-041]  Human GLP-1 receptor stably expressing cells (hGLP-1R/CHO-K1 cells) (Homo sapiens)            %              145
2  C[C@H]1c2nc(OCc3c(F)cc(Cl)cc3F)c(Cl)cc2CCN1Cc1nc2ccc(C(=O)O)nc2n1C[C@@H]1CCO1 [Compound I-033]  Human GLP-1 receptor stably expressing cells (hGLP-1R/CHO-K1 cells) (Homo sapiens)            %              111
3  C[C@H]1c2nc(NCc3ccc(Cl)cc3F)c(C(F)(F)F)cc2CCN1Cc1nc2ccc(C(=O)O)c(F)c2n1C[C@@H]1CCO1 [Compound I-153]  Human GLP-1 receptor stably expressing cells (hGLP-1R/CHO-K1 cells) (Homo sapiens)            %              112

stdin: Observed Emax on Human GLP-1 receptor stably expressing cells (hGLP-1R/CHO-K1 cells) (Homo sapiens) for COc1cc(C(=O)O)cc2c1nc(CN1CCc3cc(Cl)c(OCc4ccc(Cl)cc4F)nc3[C@@H]1C)n2C[C@@H]1CCO1 [Compound I-076] , please.
stdout: 122

stdin: Report Emax for C[C@H]1c2nc(OCc3c(F)cc(Cl)cc3F)c(C(F)F)cc2CCN1Cc1nc2ccc(C(=O)O)cc2n1C[C@@H]1CCO1 [Compound I-060] tested on Human GLP-1 receptor stably expressing cells (hGLP-1R/CHO-K1 cells) (Homo sapiens).
stdout: 105

stdin: Report Emax for COc1cc(C(=O)O)cc2c1nc(CN1CCc3cc(C(F)F)c(OCc4ccc(Cl)cc4)nc3[C@@H]1C)n2C[C@@H]1CCO1 [Compound I-129] tested on Human GLP-1 receptor stably expressing cells (hGLP-1R/CHO-K1 cells) (Homo sapiens).
stdout: 131
